- Tested on: ATF4 luciferase reporter in HEK293T cells
- TEST DESCRIPTION: ATF4-Luc assay (in vitro model of VWMD)
- Assay type: cell-based, human
- TEST PARAMETERS: Homo sapiens, HEK-293T, 7 h, HEK293T cells carrying the ATF4 luciferase reporter, 1 μg/mL tunicamycin, One Glo luminescence
pEC50: −log10 of the molar value.
PROPERTY: pEC50

Please review the entries below; each comes with its answer.
> print(dat)
                                   compound      reported
1  COc1ccc2nn(C34CCC(NC(=O)COc5ccc(Cl)c(F)c5)(CC3)[C@@H](O)C4)cc2c1  7.30 to 8.00
2  O=C(NC12CC(c3cnc(OCCCOC(F)(F)F)o3)(C1)C2)[C@H]1C[C@@H](O)c2cc(Cl)c(F)cc2O1        > 8.00
3  O=C(NC12CC(n3cc(CCCCOC(F)(F)F)nn3)(C1)C2)[C@H]1C[C@@H](O)c2cc(Cl)ccc2O1        > 8.00

(Q) Dear colleague, I am looking for the recorded pEC50 of the following compound: O=C(NC12CC(n3cc(O[C@H]4C[C@@H](OC(F)(F)F)C4)cn3)(C1)C2)[C@H]1C[C@@H](O)c2cc(Cl)ccc2O1
(A) > 8.00

(Q) Dear colleague, I am looking for the recorded pEC50 of the following compound: O=C(NC12CC(n3cc(C4CC(COC(F)(F)F)C4)nn3)(C1)C2)[C@H]1C[C@@H](O)c2cc(Cl)ccc2O1 (stereo partly shown)
(A) > 8.00

(Q) Dear colleague, I am looking for the recorded pEC50 of the following compound: O=C(NC12CC(n3cc(-c4ccc(C(F)(F)F)cn4)cn3)(C1)C2)[C@H]1C[C@@H](O)c2cc(C(F)(F)F)c(F)cc2O1
(A) > 8.00

(Q) Dear colleague, I am looking for the recorded pEC50 of the following compound: O=C(NC12CC(n3cc(N4CC[C@H](OC(F)(F)F)C4)cn3)(C1)C2)[C@H]1C[C@@H](O)c2cc(Cl)ccc2O1
(A) 7.30 to 8.00

(Q) Dear colleague, I am looking for the recorded pEC50 of the following compound: O=C(NC12CC(n3cc(C(=O)N4CC(CC(F)F)C4)cn3)(C1)C2)[C@H]1C[C@@H](O)c2cc(Cl)ccc2O1
(A) 6.30 to 6.60

(Q) Dear colleague, I am looking for the recorded pEC50 of the following compound: COc1ccc2nn(C34CC(NC(=O)C5CNc6cc(C(F)(F)F)c(F)cc6O5)(C3)C4)cc2c1 (stereo not shown)
(A) 6.60 to 7.30

(Q) Dear colleague, I am looking for the recorded pEC50 of the following compound: O=C(NC12CC(n3cc(-c4ccn(CC(F)(F)F)c4)cn3)(C1)C2)[C@H]1C[C@@H](O)c2cc(Cl)ccc2O1
(A) > 8.00

(Q) Dear colleague, I am looking for the recorded pEC50 of the following compound: O=C(NC12CC(n3cc(CCCOC(F)(F)F)cn3)(C1)C2)[C@H]1C[C@@H](O)c2cc(Cl)c(F)cc2O1
(A) > 8.00

(Q) Dear colleague, I am looking for the recorded pEC50 of the following compound: O=C(NC12CC(n3cc(C(=O)N4CC[C@@H](OC(F)(F)F)C4)cn3)(C1)C2)[C@H]1C[C@@H](O)c2cc(Cl)ccc2O1
(A) 7.30 to 8.00

(Q) Dear colleague, I am looking for the recorded pEC50 of the following compound: O=C(NC12CC(n3cc(CCCOC(F)(F)F)cn3)(C1)C2)[C@H]1C[C@@H](O)c2cc(C(F)(F)F)ccc2O1
(A) > 8.00

---

- Test system: ATF4 luciferase reporter in HEK293T cells
- TEST DESCRIPTION: ATF4-Luc assay (in vitro model of VWMD)
- Format: cell-based, human
- TEST PARAMETERS: Homo sapiens, HEK-293T, 7 h, HEK293T cells carrying the ATF4 luciferase reporter, 1 μg/mL tunicamycin, One Glo luminescence
pEC50: −log10 of the molar value.
PROPERTY: pEC50

> print(dat)
                            compound.string  reported
1  O=C(NC12CC(n3cc(-c4ccc(OC(F)F)cn4)cn3)(C1)C2)[C@H]1C[C@@H](O)c2cc(Cl)ccc2O1    > 8.00

Then there is this compound:
(Q) Dear colleague, I am looking for the recorded pEC50 of the following compound: O=C(NC12CC(n3cc(-c4ccc(C(F)(F)F)cn4)cn3)(C1)C2)[C@H]1C[C@@H](O)c2cc(F)c(F)cc2O1
(A) > 8.00

---

- Tested on: ATF4 luciferase reporter in HEK293T cells
- TEST DESCRIPTION: ATF4-Luc assay (in vitro model of VWMD)
- Assay type: cell-based, human
- TEST PARAMETERS: Homo sapiens, HEK-293T, 7 h, HEK293T cells carrying the ATF4 luciferase reporter, 1 μg/mL tunicamycin, One Glo luminescence
pEC50: −log10 of the molar value.
PROPERTY: pEC50

Please review the entries below; each comes with its answer.
> print(dat)
                            compound.string  reported
1  O=C(NC12CC(n3cc(-c4ccc(C(F)(F)F)cn4)cn3)(C1)C2)[C@H]1CNc2cc(Cl)ccc2O1    > 8.00
2  O=C(NC12CC(c3ccnc(-n4cc(C(F)(F)F)cn4)c3)(C1)C2)[C@H]1C[C@@H](O)c2cc(Cl)c(F)cc2O1    > 8.00

(Q) Dear colleague, I am looking for the recorded pEC50 of the following compound: O=C(NC12CC(n3cc(-c4ccc(C(F)(F)F)cn4)cn3)(C1)C2)[C@H]1C[C@@H](O)c2cc(Cl)c(Cl)cc2O1
(A) > 8.00

---

Listed here are compounds together with their documented pEC50.
- System: ATF4 luciferase reporter in HEK293T cells
- TEST DESCRIPTION: ATF4-Luc assay (in vitro model of VWMD)
- Format: cell-based, human
- TEST PARAMETERS: Homo sapiens, HEK-293T, 7 h, HEK293T cells carrying the ATF4 luciferase reporter, 1 μg/mL tunicamycin, One Glo luminescence
pEC50: −log10 of the molar value.

Please review the entries below; each comes with its answer.
> print(dat)
                                   compound                             system.tested      reported
1  O=C(NC12CC(n3cc(-c4ccc(OC(F)(F)F)cn4)cn3)(C1)C2)[C@@H]1C[C@@H](O)c2cc(Cl)c(F)cc2O1  ATF4 luciferase reporter in HEK293T cells        > 8.00
2  CN(CCOC(F)(F)F)c1cnn(C23CC(NC(=O)[C@H]4C[C@@H](O)c5cc(Cl)ccc5O4)(C2)C3)c1  ATF4 luciferase reporter in HEK293T cells  7.30 to 8.00
3  O=C(NC12CC(n3cc(C(=O)N4CCC(F)(F)C4)cn3)(C1)C2)[C@H]1C[C@@H](O)c2cc(Cl)ccc2O1  ATF4 luciferase reporter in HEK293T cells  6.30 to 6.60

(Q) Lab note: need pEC50 for O=C(NC12CC(n3cc(-c4ccc(OC(F)(F)F)cn4)cn3)(C1)C2)[C@H]1C[C@@H](O)c2ccccc2O1 on ATF4 luciferase reporter in HEK293T cells, anyone have it?
(A) > 8.00

(Q) Lab note: need pEC50 for O=C(NC12CC(n3cc(N4CC[C@@H](OC(F)(F)F)C4)cn3)(C1)C2)[C@@H]1C[C@@H](O)c2cc(Cl)c(F)cc2O1 on ATF4 luciferase reporter in HEK293T cells, anyone have it?
(A) > 8.00

(Q) Lab note: need pEC50 for O=C(NC12CC(OCC(=O)N3CC(OC(F)(F)F)C3)(C1)C2)[C@H]1C[C@@H](O)c2cc(Cl)ccc2O1 on ATF4 luciferase reporter in HEK293T cells, anyone have it?
(A) 6.60 to 7.30

(Q) Lab note: need pEC50 for O=C(N[C@H]1CC[C@H](n2cc(OCCOC(F)(F)F)cn2)CC1)[C@H]1C[C@@H](O)c2ccccc2O1 on ATF4 luciferase reporter in HEK293T cells, anyone have it?
(A) 6.60 to 7.30

(Q) Lab note: need pEC50 for O=C(NC12CC(c3cc(OCCCOC(F)(F)F)ncn3)(C1)C2)[C@H]1C[C@@H](O)c2cc(Cl)ccc2O1 on ATF4 luciferase reporter in HEK293T cells, anyone have it?
(A) > 8.00

(Q) Lab note: need pEC50 for COc1cc2cn(C34CC(NC(=O)[C@H]5C[C@@H](O)c6cc(C(F)(F)F)ccc6O5)(C3)C4)nc2cn1 on ATF4 luciferase reporter in HEK293T cells, anyone have it?
(A) 7.30 to 8.00

(Q) Lab note: need pEC50 for O=C(COc1ccc(Cl)c(F)c1)NC12CC(c3ccc(C(=O)N4CCC(C(F)(F)F)C4)nc3)(C1)C2 (centres unmarked) on ATF4 luciferase reporter in HEK293T cells, anyone have it?
(A) 7.30 to 8.00

(Q) Lab note: need pEC50 for O=C(NC12CC(c3ccc(OCCOC(F)(F)F)nc3)(C1)C2)[C@H]1C[C@@H](O)c2cc(Cl)ccc2O1 on ATF4 luciferase reporter in HEK293T cells, anyone have it?
(A) 6.60 to 7.30

(Q) Lab note: need pEC50 for O=C(COc1ccc(Cl)c(F)c1)N[C@H]1CC[C@H](n2cc(OCCOC(F)(F)F)cn2)CC1 on ATF4 luciferase reporter in HEK293T cells, anyone have it?
(A) > 8.00

(Q) Lab note: need pEC50 for O=C(NC12CC(n3cc4cc(OC(F)F)ccc4n3)(C1)C2)[C@H]1C[C@@H](O)c2cc(Cl)ccc2O1 on ATF4 luciferase reporter in HEK293T cells, anyone have it?
(A) 6.60 to 7.30

(Q) Lab note: need pEC50 for O=C(COc1ccc(Cl)c(F)c1)NC12CC(c3ccc(OCCCOC(F)(F)F)nc3)(C1)C2 on ATF4 luciferase reporter in HEK293T cells, anyone have it?
(A) 6.60 to 7.30
